- systemTested: Dual specificity tyrosine-phosphorylation-regulated kinase 3 (Homo sapiens, UniProt O43781)
- Sequence (O43781 whole entry): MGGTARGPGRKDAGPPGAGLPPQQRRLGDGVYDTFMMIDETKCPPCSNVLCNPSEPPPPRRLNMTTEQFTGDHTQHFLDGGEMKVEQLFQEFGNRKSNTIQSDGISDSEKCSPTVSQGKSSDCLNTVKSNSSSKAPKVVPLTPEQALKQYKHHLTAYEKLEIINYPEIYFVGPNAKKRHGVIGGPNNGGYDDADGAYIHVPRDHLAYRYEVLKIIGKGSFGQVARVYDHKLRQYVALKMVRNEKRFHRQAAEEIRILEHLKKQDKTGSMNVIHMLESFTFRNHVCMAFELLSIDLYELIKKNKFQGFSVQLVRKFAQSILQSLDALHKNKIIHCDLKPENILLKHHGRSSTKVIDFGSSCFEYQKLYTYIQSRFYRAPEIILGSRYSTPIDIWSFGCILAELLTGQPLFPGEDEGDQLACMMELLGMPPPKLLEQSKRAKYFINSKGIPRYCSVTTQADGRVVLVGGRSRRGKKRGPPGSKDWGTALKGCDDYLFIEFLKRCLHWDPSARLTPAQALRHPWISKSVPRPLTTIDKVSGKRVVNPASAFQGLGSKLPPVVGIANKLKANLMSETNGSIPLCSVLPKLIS
- protocolDetails: biochemical
pIC50: −log10 of the molar value.
# key: entry, value: pIC50

# compound, qualifierOperator, pIC50
data = [
    ("CN1C(=O)/C(=C/c2ccc3c(c2)OCO3)N=C1N [LEUCETTAMINE B]", "=", 5.31),
    ("Oc1ccc(-c2n[nH]c3ncc(-c4ccc(O)c(O)c4)cc23)cc1", "=", 7.14),
    ("c1ccc(CNc2nc(Nc3cc(C4CC4)[nH]n3)c3sccc3n2)cc1", "=", 5.37),
    ("COc1cc(/C=C/C(=O)CC(=O)/C=C/c2ccc(O)c(OC)c2)ccc1O [CURCUMIN]", "=", 5.37),
    ("COc1ccc2sc(-c3cncc(NC(C)=O)c3)nc2c1", "<", 5.00),
    ("COc1cc(N2CCN(C)CC2)ccc1Nc1nccc(-c2cn(C)c3cnccc23)n1", "=", 5.91),
]

Just for reference, ChEMBL document CHEMBL5247649 is where these values come from.
